experiment: In vivo Cmax in mice at dose of 50 mg/kg
Type: ADME, organism-based
Parameters: dose 50 mg/kg
setup-conditions: mouse
Item-by-item account of Cmax
Report the value in µg/mL with no unit label.

Please review the following examples before continuing.
CCCCCCCCCC(=O)N[C@@H](Cc1c[nH]c2ccccc12)C(=O)N[C@H](CC(N)=O)C(=O)N[C@@H](CC(=O)O)C(=O)N[C@@H]1C(=O)NCC(=O)N[C@@H](CCCN)C(=O)N[C@@H](CC(=O)O)C(=O)N[C@H](C)C(=O)N[C@@H](CC(=O)O)C(=O)NCC(=O)N[C@H](CO)C(=O)N[C@@H]([C@H](C)CC(=O)O)C(=O)N[C@@H](CC(=O)c2ccccc2N)C(=O)O[C@@H]1C
214
CCCCCCCCCC(=O)N[C@@H](Cc1c[nH]c2ccccc12)C(=O)N[C@H](CC(N)=O)C(=O)N[C@@H](CC(=O)O)C(=O)N[C@@H]1C(=O)NCC(=O)N[C@@H](CCCNC(=O)[C@@H](N)CCCCN)C(=O)N[C@@H](CC(=O)O)C(=O)N[C@H](C)C(=O)N[C@@H](CC(=O)O)C(=O)NCC(=O)N[C@H](CO)C(=O)N[C@@H]([C@H](C)CC(=O)O)C(=O)N[C@@H](CC(=O)c2ccccc2N)C(=O)O[C@@H]1C
297

What does the record list as Cmax for CCCCCCCCCC(=O)N[C@@H](Cc1c[nH]c2ccccc12)C(=O)N[C@H](CC(N)=O)C(=O)N[C@@H](CC(=O)O)C(=O)N[C@@H]1C(=O)NCC(=O)N[C@@H](CCCNC(=O)C(N)CCc2c[nH]c3ccccc23)C(=O)N[C@@H](CC(=O)O)C(=O)N[C@H](C)C(=O)N[C@@H](CC(=O)O)C(=O)NCC(=O)N[C@H](CO)C(=O)N[C@@H]([C@H](C)CC(=O)O)C(=O)N[C@@H](CC(=O)c2ccccc2N)C(=O)O[C@@H]1C (stereo partly drawn) ?
258

* * *

experiment: In vivo area under curve (AUC) was determined in murine septicemia at dose of 100 mg/kg
Type: ADME, organism-based
Parameters: dose 100 mg/kg
setup-conditions: mouse
assay-readout: AUC (µg·h/mL)
Could you give me the number in µg·h/mL? Just the number is fine.

Data request, read-out AUC, for CCCCCCCCCC(=O)N[C@@H](Cc1c[nH]c2ccccc12)C(=O)N[C@H](CC(N)=O)C(=O)N[C@@H](CC(=O)O)C(=O)N[C@@H]1C(=O)NCC(=O)N[C@@H](CCCNC(=O)c2ccccc2N)C(=O)N[C@@H](CC(=O)O)C(=O)N[C@H](C)C(=O)N[C@@H](CC(=O)O)C(=O)NCC(=O)N[C@H](CO)C(=O)N[C@@H]([C@H](C)CC(=O)O)C(=O)N[C@@H](CC(=O)c2ccccc2N)C(=O)O[C@@H]1C
1500
